Origin of measurements: patent US20160130347A1

Known fold increase over parent (IgG KD, comparative binding affinity) of a selection of binders
testSystem: T1, human MCSP(D3 domain)-avi-his (human, UniProt Q6UVK1 1587-2221, limits assumed)
T1 construct: domain: D3 domain; also called hu-MCSP(D3 domain)-avi-his
T1 sequence (looked up): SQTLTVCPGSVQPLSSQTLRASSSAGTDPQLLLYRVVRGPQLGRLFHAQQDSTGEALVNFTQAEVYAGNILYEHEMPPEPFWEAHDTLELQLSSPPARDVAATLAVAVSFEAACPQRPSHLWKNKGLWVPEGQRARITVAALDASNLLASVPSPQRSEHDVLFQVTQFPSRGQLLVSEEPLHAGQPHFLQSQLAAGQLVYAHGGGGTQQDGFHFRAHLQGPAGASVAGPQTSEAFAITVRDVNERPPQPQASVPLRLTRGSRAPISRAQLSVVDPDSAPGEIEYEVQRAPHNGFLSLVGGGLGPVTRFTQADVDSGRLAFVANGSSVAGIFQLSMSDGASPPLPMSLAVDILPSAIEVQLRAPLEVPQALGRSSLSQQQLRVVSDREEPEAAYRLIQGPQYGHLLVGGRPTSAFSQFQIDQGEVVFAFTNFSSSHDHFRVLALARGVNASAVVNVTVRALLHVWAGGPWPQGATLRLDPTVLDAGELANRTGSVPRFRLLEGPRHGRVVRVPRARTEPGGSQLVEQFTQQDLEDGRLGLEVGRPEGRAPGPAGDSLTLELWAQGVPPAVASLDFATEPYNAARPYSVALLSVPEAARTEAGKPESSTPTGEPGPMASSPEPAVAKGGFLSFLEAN
assayComment: ratio of ProteOn IgG KD against parental M4-3/ML2 IgG
property: fold increase over parent (IgG KD, comparative binding affinity) (fold)

| binder | u | recordedValue |
| --- | --- | --- |
| M4-3/ML2 (E10) IgG (antibody, V domains shown, Human IgG1 format) VH: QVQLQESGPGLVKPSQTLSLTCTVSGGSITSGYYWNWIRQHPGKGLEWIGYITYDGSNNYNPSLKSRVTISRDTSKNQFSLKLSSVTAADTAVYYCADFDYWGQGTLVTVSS VL: DIQMTQSPSSLSASVGDRVTITCRASYGIRGYLNWYQQKPGKAPKLLIYYTSSLHSGVPSRFSGSGSGTDFTLTISSLQPEDFATYHCQQYSKLPWTFGQGTKVEIK | fold | 2 |
| M4-3/ML2 (C5) IgG (antibody, V domains shown, Human IgG1 format) VH: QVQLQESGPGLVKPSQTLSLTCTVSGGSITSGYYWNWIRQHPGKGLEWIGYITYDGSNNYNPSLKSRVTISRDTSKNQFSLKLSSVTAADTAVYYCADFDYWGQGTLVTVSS VL: DIQMTQSPSSLSASVGDRVTITCRASRGIREYLNWYQQKPGKAPKLLIYYTGSLHSGVPSRFSGSGSGTDFTLTISSLQPEDFATYYCQQYSELPWTFGQGTKVEIK | fold | 5 |
| M4-3(C1)/ML2(E10) IgG (antibody, V domains shown, Human IgG1 format) VH: QVQLQESGPGLVKPSQTLSLTCTVSGGSITSGYYWNWIRQHPGKGLEWIGYITFDGSNNYNPSLKSRVTISRDTSKNQFSLKLSSVTAADTAVYYCADFDYWGQGTLVTVSS VL: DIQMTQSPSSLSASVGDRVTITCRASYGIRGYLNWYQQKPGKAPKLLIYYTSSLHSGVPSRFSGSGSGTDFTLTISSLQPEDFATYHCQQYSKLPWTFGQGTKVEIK | fold | 4 |
